- System: E. coli TESEC Mtb Alr
- assay protocol: growth (OD600 after 10 h); higher = more growth (less inhibition)
- assay setup: arabinose 1000000 nM; compound 0.1 mM; raw OD600 reference: median of DMSO wells 0.193, cell-free background 0.041
Structures can show the parent of a compound that is named as a salt.
readout label: growth
Answer using only a numeral; do not append any unit.

Some entries whose results are on file:
[
  {
    "compound": "CCOc1ccc(NC(C)=O)cc1",
    "result number": 0.183
  },
  {
    "compound": "CO[C@H]1/C=C/O[C@@]2(C)Oc3c(C)c(O)c4c(O)c(c5c(nc6cc(C)ccn65)c4c3C2=O)NC(=O)/C(C)=C\\C=C\\[C@H](C)[C@H](O)[C@@H](C)[C@@H](O)[C@@H](C)[C@H](OC(C)=O)[C@@H]1C",
    "result number": 0.0418
  },
  {
    "compound": "c1ccc(C2CN3CCSC3=N2)cc1 (stereo not drawn) [Tetramisole hydrochloride]",
    "result number": 0.176
  },
  {
    "compound": "CCC(=O)O[C@]1(C(=O)SCF)[C@H](C)C[C@H]2[C@@H]3C[C@H](F)C4=CC(=O)C=C[C@]4(C)[C@@]3(F)[C@@H](O)C[C@@]21C [Fluticasone propionate]",
    "result number": 0.201
  },
  {
    "compound": "N=C(N)N1CCc2ccccc2C1 [Debrisoquin sulfate]",
    "result number": 0.174
  },
  {
    "compound": "CCN(CC)C(=O)c1ccc(O)c(OC)c1",
    "result number": 0.181
  }
]

Quick check: growth on E. coli TESEC Mtb Alr, item Cc1c(OCC(F)(F)F)ccnc1C[S+]([O-])c1nc2ccccc2[nH]1 (stereo not drawn) ?
0.094

###

- Tested on: E. coli TESEC Mtb Asd
- assay protocol: growth (OD600 after 10 h); higher = more growth (less inhibition)
- assay setup: arabinose induction (level): High; compound 0.1 mM; raw OD600 reference: median of DMSO wells 0.331, cell-free background 0.041
Structures can show the parent of a compound that is named as a salt.
readout label: growth
Answer using only a numeral; do not append any unit.

Some entries whose results are on file:
[
  {
    "compound": "CCCCCN(CCCCC)C(=O)C(CCC(=O)O)NC(=O)c1ccc(Cl)c(Cl)c1 (centres undefined) [Lorglumide sodium salt]",
    "growth": 0.194
  },
  {
    "compound": "COc1ccc2[nH]c([S+]([O-])Cc3ncc(C)c(OC)c3C)nc2n1 (centres undefined)",
    "growth": 0.388
  },
  {
    "compound": "CNCC(O)c1ccc(O)c(O)c1 (centres undefined) [Racepinephrine HCl]",
    "growth": 0.27
  }
]

Consider the additional compound presented here.
GET /values?readout=growth&item= CCC[C@@H]1C[C@@H](C(=O)N[C@@H]([C@H]2O[C@H](SC)[C@H](O)[C@@H](O)[C@H]2O)[C@H](C)Cl)N(C)C1 [Clindamycin hydrochloride]
0.0699

###

- Tested on: E. coli TESEC Mtb Alr
- assay protocol: growth (OD600 after 10 h); higher = more growth (less inhibition)
- assay setup: arabinose 100 nM; compound 0.1 mM; raw OD600 reference: median of DMSO wells 0.413, cell-free background 0.052
Structures can show the parent of a compound that is named as a salt.
readout label: growth
Answer using only a numeral; do not append any unit.

[
  {
    "compound": "Cc1cccc(C)c1OCC(C)N (stereo unspecified) [Mexiletine hydrochloride]",
    "growth": 0.4
  }
]

GET /values?readout=growth&item= "O=C(Oc1cccc2cccnc12)c1ccccc1"
0.368

GET /values?readout=growth&item= "CC(C)/N=c1\cc2n(-c3ccc(Cl)cc3)c3ccccc3nc-2cc1Nc1ccc(Cl)cc1"
0.395

GET /values?readout=growth&item= CN(C)CCC=C1c2ccccc2CCc2ccccc21 [Amitryptiline hydrochloride]
0.403

GET /values?readout=growth&item= "Nc1ccn([C@@H]2O[C@H](CO)[C@@H](O)C2(F)F)c(=O)n1"
0.321

GET /values?readout=growth&item= "CCCC(CCC)C(=O)O"
0.41

GET /values?readout=growth&item= CC(=O)O[C@H]1C[C@@]2(C)[C@@H](C[C@@H](O)[C@H]3[C@@]4(C)CC[C@@H](O)[C@@H](C)[C@@H]4CC[C@@]32C)/C1=C(\CCC=C(C)C)C(=O)O [Fusidic acid sodium salt]
0.11

GET /values?readout=growth&item= C[C@]12CC[C@@H]3c4ccc(OS(=O)(=O)O)cc4CC[C@H]3[C@@H]1CCC2=O [Estropipate]
0.41

GET /values?readout=growth&item= "CC(C)(C)C(=O)OCOC(=O)[C@@H]1N2C(=O)[C@@H](NC(=O)[C@H](N)c3ccccc3)[C@H]2SC1(C)C"
0.4

Measured values drawn from the supplement of paper PMC9262897 for this set.
